Source of measurements: patent US20240408093A1

Measured DC50, listed per entry for reference.
- Tested on: GSPT1
- experiment_summary: Payload release assay (DC50 readout), GSPT1 degradation in the presence of recombinant target protein
- Format: cell-based
- condition_summary: 3 μM recombinant EGFR T790M L858R; I-series compounds (GSPT1 readout inferred); read-out: DC50 at 3 μM EGFR T790M L858R

C=C(CN(C(=O)NCc1ccc2c(c1)CN(C1CCC(=O)NC1=O)C2=O)c1ccc(C)c(Cl)c1)C(=O)Nc1cccc(Oc2nc(Nc3ccc(N4CCN(C)CC4)cc3)nc3ccsc23)c1 (stereo not drawn) [Compound I-70] ... 250 to 5000 nM

## Task Find the measured DC50 of C=C(CN(C(=O)NCc1ccc2c(c1)CN(C1CCC(=O)NC1=O)C2=O)c1ccc(C)c(Cl)c1)C(=O)N1C[C@@H](COc2nc(Nc3cnn(C)c3)nc3[nH]cc(Cl)c23)[C@H](OC)C1 (stereo partly drawn) [Compound I-71] with GSPT1 as test system.
## Result 250 to 5000 nM

## Task Find the measured DC50 of C=C(COc1cc(Cl)cc(NC(=O)NCc2ccc3c(c2)CN(C2CCC(=O)NC2=O)C3=O)c1)C(=O)Nc1cc(Nc2nccc(-c3cn(C)c4ccccc34)n2)c(OC)cc1N(C)CCN(C)C (stereo not drawn) [Compound I-59] with GSPT1 as test system.
## Result < 250 nM

## Task Find the measured DC50 of C=C(CN(C(=O)NCc1ccc2c(c1)CN(C1CCC(=O)NC1=O)C2=O)c1ccc(C)c(Cl)c1)C(=O)Nc1cc(Nc2ncc(-c3cn(C)c4ccccc34)cn2)c(OC)cc1N(C)CCN(C)C (stereo not drawn) [Compound I-42] with GSPT1 as test system.
## Result < 250 nM

## Task Find the measured DC50 of C=C(COc1cc(Cl)cc(NC(=O)NCc2ccc3c(c2)CN(C2CCC(=O)NC2=O)C3=O)c1)C(=O)Nc1cccc(Oc2nc(Nc3ccc(N4CCN(C)CC4)cc3)nc3ccsc23)c1 (stereo not drawn) [Compound I-55] with GSPT1 as test system.
## Result < 250 nM

## Task Find the measured DC50 of C=C(COc1c(Cl)cccc1NC(=O)NCc1ccc2c(c1)CN(C1CCC(=O)NC1=O)C2=O)C(=O)N[C@@H]1CN(c2nc(Nc3cn(C)nc3OC)c3ncn(C)c3n2)C[C@H]1F (stereo partly drawn) [Compound I-69] with GSPT1 as test system.
## Result < 250 nM

---

- tested_system: GSPT1 (Homo sapiens, UniProt P15170+Q96SW2)
- Construct: host or cells: HEK293 LgBiT / GSPT1 HiBiT CRISPR knock-in
- Sequence (P15170 whole entry): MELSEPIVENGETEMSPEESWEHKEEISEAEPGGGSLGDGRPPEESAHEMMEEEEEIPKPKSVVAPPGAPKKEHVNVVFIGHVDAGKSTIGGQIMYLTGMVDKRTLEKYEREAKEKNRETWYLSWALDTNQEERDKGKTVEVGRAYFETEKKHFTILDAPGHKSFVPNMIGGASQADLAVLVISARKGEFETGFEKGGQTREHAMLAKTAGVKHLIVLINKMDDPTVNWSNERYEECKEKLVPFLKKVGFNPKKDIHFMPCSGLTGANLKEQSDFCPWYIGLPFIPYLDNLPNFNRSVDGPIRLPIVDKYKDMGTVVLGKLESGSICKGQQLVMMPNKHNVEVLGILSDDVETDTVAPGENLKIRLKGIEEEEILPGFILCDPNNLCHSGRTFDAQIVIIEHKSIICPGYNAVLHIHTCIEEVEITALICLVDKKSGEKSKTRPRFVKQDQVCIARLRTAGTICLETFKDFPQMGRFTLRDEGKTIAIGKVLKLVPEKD
- Sequence (Q96SW2 whole entry): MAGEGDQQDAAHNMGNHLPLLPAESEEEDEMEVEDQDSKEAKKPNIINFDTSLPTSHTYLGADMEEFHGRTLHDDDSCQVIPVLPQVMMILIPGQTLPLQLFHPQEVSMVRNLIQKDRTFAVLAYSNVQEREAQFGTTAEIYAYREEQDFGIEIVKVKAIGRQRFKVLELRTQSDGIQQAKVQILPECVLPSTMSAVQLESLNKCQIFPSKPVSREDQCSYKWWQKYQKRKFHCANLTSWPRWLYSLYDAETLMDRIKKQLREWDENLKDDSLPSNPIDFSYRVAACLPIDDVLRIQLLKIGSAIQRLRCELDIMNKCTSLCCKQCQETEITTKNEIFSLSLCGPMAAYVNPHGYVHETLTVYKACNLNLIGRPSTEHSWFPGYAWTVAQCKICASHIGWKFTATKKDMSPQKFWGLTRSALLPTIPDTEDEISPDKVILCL
- Sequence (Q16531 whole entry partner): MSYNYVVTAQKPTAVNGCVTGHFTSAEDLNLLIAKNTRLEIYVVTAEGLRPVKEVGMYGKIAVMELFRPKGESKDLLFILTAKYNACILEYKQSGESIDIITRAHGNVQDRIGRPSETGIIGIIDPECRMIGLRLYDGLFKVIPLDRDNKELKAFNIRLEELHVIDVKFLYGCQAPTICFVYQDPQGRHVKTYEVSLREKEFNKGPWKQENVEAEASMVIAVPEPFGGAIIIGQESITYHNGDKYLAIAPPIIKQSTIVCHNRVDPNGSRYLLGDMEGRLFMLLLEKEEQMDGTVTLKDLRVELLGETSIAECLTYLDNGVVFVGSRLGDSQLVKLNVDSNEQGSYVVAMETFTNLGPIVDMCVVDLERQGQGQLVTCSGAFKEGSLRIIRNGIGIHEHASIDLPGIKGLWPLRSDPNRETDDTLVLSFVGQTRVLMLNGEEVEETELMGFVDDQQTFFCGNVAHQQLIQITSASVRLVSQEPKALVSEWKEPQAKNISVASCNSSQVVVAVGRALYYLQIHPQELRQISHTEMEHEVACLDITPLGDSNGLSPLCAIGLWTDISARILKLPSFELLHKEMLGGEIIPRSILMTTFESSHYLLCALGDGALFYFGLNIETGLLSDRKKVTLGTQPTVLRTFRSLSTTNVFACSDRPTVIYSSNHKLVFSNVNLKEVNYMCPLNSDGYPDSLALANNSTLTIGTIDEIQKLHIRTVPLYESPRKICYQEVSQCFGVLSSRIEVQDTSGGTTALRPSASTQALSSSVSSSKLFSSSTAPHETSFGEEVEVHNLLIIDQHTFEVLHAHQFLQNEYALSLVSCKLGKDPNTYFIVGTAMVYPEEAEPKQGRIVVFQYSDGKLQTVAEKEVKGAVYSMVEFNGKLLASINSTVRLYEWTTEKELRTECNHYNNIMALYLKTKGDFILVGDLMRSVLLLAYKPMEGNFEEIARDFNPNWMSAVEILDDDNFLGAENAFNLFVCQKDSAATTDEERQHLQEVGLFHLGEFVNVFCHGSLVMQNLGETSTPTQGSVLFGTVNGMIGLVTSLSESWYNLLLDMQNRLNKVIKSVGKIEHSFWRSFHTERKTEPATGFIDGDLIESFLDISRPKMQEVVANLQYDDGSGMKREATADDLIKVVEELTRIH
- experiment_summary: GSPT1 HiBiT degradation assay
- Type: cell-based
- condition_summary: HEK293 LgBiT GSPT1 HiBiT cells, 6 hours
Measured DC50, listed per entry for reference.

C=C(COc1cc(Cl)cc(NC(=O)NCc2ccc3c(c2)CN(C2CCC(=O)NC2=O)C3=O)c1)C(=O)N1CC2(CC(n3nc(-c4ccc5c(cnn5C)c4)c(-c4c(Cl)c(C)cc5[nH]ncc45)c3C)C2)C1 (centres unmarked) ... > 2.5 µM

## Task // Input: C=C(CN1C(=O)CCC(N2Cc3cc(CNC(=O)Nc4ccc(C)c(Cl)c4)ccc3C2=O)C1=O)C(=O)N1CCC[C@@H](n2nc(-c3ccc(Oc4ccccc4)cc3)c3c(N)ncnc32)C1 (some centres unmarked) . Output its DC50 only.
## Result > 2.5 µM

## Task // Input: C=C(CN1C(=O)CCC(N2Cc3cc(CNC(=O)Nc4ccc(C)c(Cl)c4)ccc3C2=O)C1=O)C(=O)N1CCN(c2nc(=O)n(-c3c(C)ccnc3C(C)C)c3nc(-c4c(O)cccc4F)c(F)cc23)[C@@H](C)C1 (some centres unmarked) . Output its DC50 only.
## Result 0.5 to 2.5 µM

## Task // Input: C=C(COc1cc(C(F)(F)F)c(Cl)cc1NC(=O)NCc1ccc2c(c1)CN(C1CCC(=O)NC1=O)C2=O)C(=O)N1CCN(c2nc(OC[C@@H]3CCCN3C)nc3c2CCN(c2cccc4cccc(Cl)c24)C3)C[C@@H]1CC#N (some centres unmarked) . Output its DC50 only.
## Result < 0.05 µM

## Task // Input: C=C(COc1cc(Cl)cc(NC(=O)NCc2ccc3c(c2)CN(C2CCC(=O)NC2=O)C3=O)c1F)C(=O)N1CCN(c2nc(OC[C@@H]3CCCN3C)nc3c2CCN(c2cccc4cccc(Cl)c24)C3)C[C@@H]1CC#N (some centres unmarked) . Output its DC50 only.
## Result 0.05 to 0.5 µM
